Biological target: recombinant SARS-CoV-2 RBD with C-terminal AviTag (SARS-CoV-2, UniProt P0DTC2 319-541)
Experiment: ELISA, competition with coated ACE2-Fc for RBD [Cont. 5]
Known IC50 of a selection of binders
Measured property: IC50 (nM)

{"columns": ["Binder", "Scale unit", "Observed"],
 "data": [
  ["PP846 MBP-R5D-G6-H6 (VHH, Form: Monomer) VHH: QVQLVESGGGLVQPGGSLRLSCAASGRILAANIVHWYRQAPGKNREGVAGITSGGSTYYADSVKGRFTISRDNAKNTVYLQMNSLKPEDTAVYYCAAKPLGSPDDFDYWGQGTQVTVSS", "nM", 7.5],
  ["PP847 MBP-R5E-D1-H6 (VHH, Form: Monomer) VHH: QVQLVESGGGLVQPGGSLRLSCAASGFEFSTSAMHWYRQAPGKQREWVARITSGGSDNYGDSVKGRFTISRDNAKNTVYLQMNSLKPEDTAVYYCAAYVGTDNYGYDYWGQGTQVTVSS", "nM", 2.9],
  ["R5D-D4 (competition ELISA sample) (VHH) VHH: QVQLVESGGGLVQPGGSLRLSCAASGSDFTINAMHWFRQAPGKQREFVATITSTSSTAYRDSVKGRFTISRDNAKNTVYLQMNSLKPEDTAVYYCAAFAVRDADTAGWTARDYWGQGTQVTVSS", "nM", 48.1],
  ["PP848 MBP-R5E-G2-H6 (VHH, Form: Monomer) VHH: QVQLVESGGGLVQPGGSLRLSCAASGTIKSINAMHWFRQAPGKAREFVASIGSNGAKSYSDSVKGRFTISRDNAKNTVYLQMNSLKPEDTAVYYCTALITVAESDDYDYWGQGTQVTVSS", "nM", 2.1]
]}
